B1: library; a variant is named by its letters at N, in order (parent)
chain: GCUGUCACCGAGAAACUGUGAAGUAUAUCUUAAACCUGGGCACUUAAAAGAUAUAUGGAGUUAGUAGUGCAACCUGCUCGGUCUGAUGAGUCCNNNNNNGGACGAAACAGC

- Variants of: B1
- assay protocol: normalized RNA/DNA level without ligand (relative to sTRSVctl = 100) (log10 (% of sTRSVctl)); HEK293T; ligand: cyclic di-GMP (c-di-GMP-II aptamer); higher = less ribozyme self-cleavage, higher mRNA level
- applied conditions: reporter: mCherry (pCS4076), ligand present: no
observable: normalized RNA/DNA level without ligand (log10)

# seq text, value measured
rows = [
    ("GCUGUCACCGAGAAACUGUGAAGUAUAUCUUAAACCUGGGCACUUAAAAGAUAUAUGGAGUUAGUAGUGCAACCUGCUCGGUCUGAUGAGUCCAGUUAGGGACGAAACAGC", 1.54),
    ("GCUGUCACCGAGAAACUGUGAAGUAUAUCUUAAACCUGGGCACUUAAAAGAUAUAUGGAGUUAGUAGUGCAACCUGCUCGGUCUGAUGAGUCCAUUUGCGGACGAAACAGC", 1.76),
    ("GCUGUCACCGAGAAACUGUGAAGUAUAUCUUAAACCUGGGCACUUAAAAGAUAUAUGGAGUUAGUAGUGCAACCUGCUCGGUCUGAUGAGUCCUUCCCGGGACGAAACAGC", 1.85),
    ("GCUGUCACCGAGAAACUGUGAAGUAUAUCUUAAACCUGGGCACUUAAAAGAUAUAUGGAGUUAGUAGUGCAACCUGCUCGGUCUGAUGAGUCCCUUGUAGGACGAAACAGC", 1.57),
    ("GCUGUCACCGAGAAACUGUGAAGUAUAUCUUAAACCUGGGCACUUAAAAGAUAUAUGGAGUUAGUAGUGCAACCUGCUCGGUCUGAUGAGUCCUCCACAGGACGAAACAGC", 1.74),
    ("GCUGUCACCGAGAAACUGUGAAGUAUAUCUUAAACCUGGGCACUUAAAAGAUAUAUGGAGUUAGUAGUGCAACCUGCUCGGUCUGAUGAGUCCUGCAUAGGACGAAACAGC", 1.7),
    ("GCUGUCACCGAGAAACUGUGAAGUAUAUCUUAAACCUGGGCACUUAAAAGAUAUAUGGAGUUAGUAGUGCAACCUGCUCGGUCUGAUGAGUCCUAUAGGGGACGAAACAGC", 1.68),
    ("GCUGUCACCGAGAAACUGUGAAGUAUAUCUUAAACCUGGGCACUUAAAAGAUAUAUGGAGUUAGUAGUGCAACCUGCUCGGUCUGAUGAGUCCGUGGUCGGACGAAACAGC", 1.25),
    ("GCUGUCACCGAGAAACUGUGAAGUAUAUCUUAAACCUGGGCACUUAAAAGAUAUAUGGAGUUAGUAGUGCAACCUGCUCGGUCUGAUGAGUCCCGGAGUGGACGAAACAGC", 1.63),
    ("GCUGUCACCGAGAAACUGUGAAGUAUAUCUUAAACCUGGGCACUUAAAAGAUAUAUGGAGUUAGUAGUGCAACCUGCUCGGUCUGAUGAGUCCAGCUAUGGACGAAACAGC", 1.7),
    ("GCUGUCACCGAGAAACUGUGAAGUAUAUCUUAAACCUGGGCACUUAAAAGAUAUAUGGAGUUAGUAGUGCAACCUGCUCGGUCUGAUGAGUCCUCACGUGGACGAAACAGC", 1.6),
    ("GCUGUCACCGAGAAACUGUGAAGUAUAUCUUAAACCUGGGCACUUAAAAGAUAUAUGGAGUUAGUAGUGCAACCUGCUCGGUCUGAUGAGUCCUAUGAAGGACGAAACAGC", 1.64),
    ("GCUGUCACCGAGAAACUGUGAAGUAUAUCUUAAACCUGGGCACUUAAAAGAUAUAUGGAGUUAGUAGUGCAACCUGCUCGGUCUGAUGAGUCCUUGCUCGGACGAAACAGC", 1.79),
    ("GCUGUCACCGAGAAACUGUGAAGUAUAUCUUAAACCUGGGCACUUAAAAGAUAUAUGGAGUUAGUAGUGCAACCUGCUCGGUCUGAUGAGUCCGCAUCUGGACGAAACAGC", 1.61),
    ("GCUGUCACCGAGAAACUGUGAAGUAUAUCUUAAACCUGGGCACUUAAAAGAUAUAUGGAGUUAGUAGUGCAACCUGCUCGGUCUGAUGAGUCCUAGUACGGACGAAACAGC", 1.68),
    ("GCUGUCACCGAGAAACUGUGAAGUAUAUCUUAAACCUGGGCACUUAAAAGAUAUAUGGAGUUAGUAGUGCAACCUGCUCGGUCUGAUGAGUCCGCAGCAGGACGAAACAGC", 1.82),
    ("GCUGUCACCGAGAAACUGUGAAGUAUAUCUUAAACCUGGGCACUUAAAAGAUAUAUGGAGUUAGUAGUGCAACCUGCUCGGUCUGAUGAGUCCUCCCUAGGACGAAACAGC", 1.7),
    ("GCUGUCACCGAGAAACUGUGAAGUAUAUCUUAAACCUGGGCACUUAAAAGAUAUAUGGAGUUAGUAGUGCAACCUGCUCGGUCUGAUGAGUCCGAACAUGGACGAAACAGC", 1.64),
    ("GCUGUCACCGAGAAACUGUGAAGUAUAUCUUAAACCUGGGCACUUAAAAGAUAUAUGGAGUUAGUAGUGCAACCUGCUCGGUCUGAUGAGUCCUUGAGAGGACGAAACAGC", 1.58),
    ("GCUGUCACCGAGAAACUGUGAAGUAUAUCUUAAACCUGGGCACUUAAAAGAUAUAUGGAGUUAGUAGUGCAACCUGCUCGGUCUGAUGAGUCCCGAAUAGGACGAAACAGC", 1.24),
]
